# Target system: D(1A) dopamine receptor (Homo sapiens)
# Method: Allosteric Agonists of the Human D1 Dopamine Receptor: qHTS; further: 0% is about no effect
# Test parameters: HEK293 T-REx D1 cells, calcium flux, agonist mode; at 2 µM; active compounds read high
In all, about 360,000 compounds went through this assay and about 3,700 (1%) were called active. This is one part of a sample in which actives are shown more often than they occur.
Attribute measured: activation (%)

> print(dat)
                                    compound  unit.label  recorded.value
 1           COc1ccc(C(=O)NCCCN2CCOCC2)cc1Br           %             5.3
 2  Cc1ccc(N(C)C(=O)C2CCN(S(=O)(=O)c3ccc4c(c3)CCCN4C(=O)C3CCC3)CC2)cc1           %            5.77
 3  CCCCC(=O)NNC(=S)NC(=O)C(c1ccccc1)c1ccccc1           %             179
 4  O=C(Cn1nc(Cc2cccnc2)c2ccccc2c1=O)NCC1COc2ccccc2O1 (stereo not given)           %           0.536
 5  C/C(=N\NC(=O)CNC(=O)C(c1ccccc1)c1ccccc1)c1ccc(C)cc1           %           0.588
 6    COc1ccc(N2CCN(c3cc(C)nc4nncn34)CC2)cc1           %            5.83
 7  O=C(NCCCN1CCOCC1)c1ccc2c(c1)N(Cc1cccc(F)c1)C(=O)c1ccccc1S2           %            37.5
 8  COc1ccc(-c2cc(-c3ccc(F)cc3)nc3c2COc2ccccc2-3)cc1           %          -0.494
 9  O=C(NCCCN1CCCCC1)c1ccc2c(c1)NC(=O)C(N1CCOCC1)S2 (stereo not given)           %            1.92
10  CC(C)CCN(C(=O)Nc1ccc(Cl)c(Cl)c1)C(C)c1cccs1 (stereo not given)           %            23.8

----------
# Target system: D(1A) dopamine receptor (Homo sapiens) (UniProt P21728)
# Sequence (P21728 whole entry, looked up): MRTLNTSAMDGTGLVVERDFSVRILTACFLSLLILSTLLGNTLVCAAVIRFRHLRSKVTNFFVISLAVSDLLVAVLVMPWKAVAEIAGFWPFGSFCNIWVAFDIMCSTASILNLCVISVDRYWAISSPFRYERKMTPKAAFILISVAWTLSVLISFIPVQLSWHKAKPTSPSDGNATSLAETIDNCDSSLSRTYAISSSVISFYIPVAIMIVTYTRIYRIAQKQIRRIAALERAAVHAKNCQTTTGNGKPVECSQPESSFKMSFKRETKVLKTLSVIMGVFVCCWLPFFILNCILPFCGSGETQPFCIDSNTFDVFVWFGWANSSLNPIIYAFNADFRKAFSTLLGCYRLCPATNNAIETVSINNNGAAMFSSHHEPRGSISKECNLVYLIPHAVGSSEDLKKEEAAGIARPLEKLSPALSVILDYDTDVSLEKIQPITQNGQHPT
# Method: Allosteric Agonists of the Human D1 Dopamine Receptor: qHTS; further: 0% is about no effect
# Test parameters: HEK293 T-REx D1 cells, calcium flux, agonist mode; at 2 µM; active compounds read high
The whole screen tested about 360,000 compounds, of which about 3,700 (1%) were called active. This excerpt belongs to a sample that is enriched for actives.
Attribute measured: activation (%)

> print(dat)
                                    molecule  attribute.measured  recorded.value
 1  O=C(NC1CCN(Cc2ccccc2)CC1)c1cc(Br)c(Br)[nH]1          activation            7.63
 2  CC(C)(C)c1ccc(S(=O)(=O)N2CCN(C(=O)c3cc(-c4ccc(Br)cc4)n[nH]3)CC2)cc1          activation             2.7
 3  CCc1ccc(NC(=O)Cn2nnc(C(=O)NCc3ccc4c(c3)OCO4)c2N)cc1          activation           0.807
 4    Cc1cc(C(=O)NC2CCN(Cc3ccccc3)CC2)n[nH]1          activation            1.69
 5  O=C(CCCCn1c(=O)c2ccccc2n(CC(=O)Nc2cccc(C(F)(F)F)c2)c1=O)NCc1ccc2c(c1)OCO2          activation            4.77
 6  COc1cccc2cc(-c3nc(Cl)c4c5c(sc4n3)CC(C)CC5)c(=O)oc12 (configuration not stated)          activation          -0.914
 7  Cc1cc(NC(=O)c2ccc(-c3ccc(Cl)cc3)o2)cc(-c2nc3ncccc3o2)c1O          activation          -0.471
 8  Cc1cccc(NC(=O)Cn2c(=O)n(Cc3ccccc3)c(=O)c3c(C)c(C)sc32)c1          activation            1.32
 9  CCOc1ccccc1CNC(=O)C1CCCN(S(=O)(=O)c2ccc3c(ccn3C)c2)C1 (configuration not stated)          activation            4.08
10  Cc1ccc(Cn2ncc3c4sc(C)cc4n(C)c3c2=O)c(C)c1          activation            3.45
11  CC1=CC2=NC(=O)/C(=C/c3coc4ccccc4c3=O)C(=N)N2O1          activation             227
12  O=C(NC(=S)Nc1cc(C(F)(F)F)ccc1N1CCOCC1)c1ccc(-c2cccc(Cl)c2)o1          activation            4.39
13  CCOC(=O)c1c(NC(=S)Nc2ccccc2)sc2c1CCN(C)C2          activation            32.3
14  Cc1ccc(Cl)cc1N(C)C(=O)Cn1nc(Cc2cccnc2)c2ccccc2c1=O          activation            3.19
15  CCOc1ccc(CNC(=O)c2ccc3c(c2)nnn3C2CCCC2)cc1          activation             1.9
16  COc1ccc(C(CNCC(=O)Nc2ccccc2F)N(C)C)cc1 (configuration not stated)          activation           0.114
17  COc1cccc(CNCCc2c[nH]c3ccccc23)c1OCc1ccccc1F          activation            18.2
18  Cc1c(NC(=S)NCc2ccc(F)cc2)cccc1[N+](=O)[O-]          activation            31.7
19               Cc1cc(Br)ccc1NC(=S)NC1CCCC1          activation            9.12
20  CCOc1ccc(N(Cc2ccccc2)C(=O)c2nc(S(C)(=O)=O)ncc2Cl)cc1          activation            1.14
21  CCc1ccc(Nc2nn3c(=O)c4cc5c(cc4nc3s2)OCO5)cc1          activation           0.763
22  Cc1ccccc1OCCC(=O)OCC(=O)NC(C)c1ccccc1 (configuration not stated)          activation            1.35
23  CN(C)c1ccc(/C=C2\NC(=S)N(Cc3ccccc3)C2=O)cc1          activation             203
24  CC(NC(=O)COC(=O)c1ccc(Cl)cc1O)c1ccc(F)cc1 (configuration not stated)          activation              40
25  C=CCOc1ccc(/C=C/C(=O)OCC(=O)NC(C)c2ccc(F)cc2)cc1 (configuration not stated)          activation            7.04
26  Cc1noc(C)c1-c1ccc2ncnc(NC(C)c3ccco3)c2c1 (configuration not stated)          activation           -0.27
27  Cc1ccc(NC(=O)Cn2c(=O)n(-c3ccccc3)c(=O)c3c4c(sc32)CCCC4)cc1          activation            4.64
28  COc1ccc(C(CCNCc2ccccc2F)c2ccc(F)cc2)cc1 (configuration not stated)          activation            41.1
29  COc1cc(OC)cc(C(=O)N[C@H](C(=O)OCC(=O)NC(C)c2ccccc2)C(C)C)c1 (some centres not stated)          activation             119
30  Cc1ccc(C)n1-c1nnc(N2CCC(C(=O)NCc3ccc(F)cc3)CC2)s1          activation            2.04
31            COc1c(C(=O)N2CCCC2)ccc2ccccc12          activation            1.37
32  O=C(Nc1nccs1)C1CCCN1S(=O)(=O)c1cccc2cccnc12 (configuration not stated)          activation           0.517
33  CC(CCc1ccccc1)NC(=O)COC(=O)c1ccc(F)cc1 (configuration not stated)          activation            10.8
34  COc1cc(/C=C(\C#N)c2nc3c(s2)CC(C)CC3)ccc1O (configuration not stated)          activation            35.8
35  COc1cccc(CNCc2c(C(=O)O)n(Cc3ccc(C)cc3)c3cc(C)ccc23)c1OC          activation           0.928
36  Cc1cc2oc(C(=O)N(Cc3ccc(Cl)cc3)Cc3ccco3)c(C)c2cc1Cl          activation            18.5
37  CCOC(=O)c1c(NC(=O)/C(C#N)=C/c2ccccc2)sc2c1CCC2          activation           0.119
38  CC1CCCN(Cc2c(O)ccc3c(=O)c(Oc4ccc(C(C)(C)C)cc4)c(C(F)(F)F)oc23)C1 (configuration not stated)          activation            -1.8
39  COc1ccc(CCNCc2c(C(=O)O)c(C)n(Cc3cccc(C)c3)c2C)cc1OC          activation            1.85
40  O=c1n(Cc2cccc(C(F)(F)F)c2)c2ccccc2c2nc(-c3ccccc3)nn12          activation            5.18
41  O=C(CCc1cn(Cc2ccc(F)cc2)c2ccccc12)NC1CCCCC1          activation            4.91
42  COc1ccc(-c2nc3nc(C)cc(C)n3c2Nc2c(C)cccc2C)cc1          activation            7.65
